// data source = patent US20130096067A1

System: Raf-1^gof intestinal tumors; further: test concentration or dose not given here
Conditions: screen of 480 ICCB compounds in vials; compounds fed to flies with one-day old Raf-1^gof tumors, assessed three days later; esg-Gal4 luciferase
Rule: measured Log2 (fold) (luciferase activity, log2 of the fold difference relative to DMSO controls) below -0.5 gets Satisfied; anything equal to or greater than -0.5 gets Not satisfied.

[Q] Please let me know if "CCCC(=O)Nc1ncnc2c1ncn2[C@@H]1O[C@@H]2COP(=O)(O)O[C@H]2[C@H]1OC(=O)CCC" shows Log2 (fold) (luciferase activity, log2 of the fold difference relative to DMSO controls) below -0.5.
[A] Satisfied

[Q] Please let me know if "CCOc1ccc(-c2nc3ccc(-c4nc5ccc(N6CCN(C)CC6)cc5[nH]4)cc3[nH]2)cc1" shows Log2 (fold) (luciferase activity, log2 of the fold difference relative to DMSO controls) below -0.5.
[A] Satisfied

[Q] Please let me know if CCCCC/C=C\C/C=C\C/C=C\C/C=C\CCCC(=O)OC(CO)COCCCCCCCCCCCCCCCC (stereo not drawn) shows Log2 (fold) (luciferase activity, log2 of the fold difference relative to DMSO controls) below -0.5.
[A] Not satisfied

[Q] Please let me know if "N#C/C(=C/c1ccc(O)c(O)c1)C(=O)NCc1ccccc1" shows Log2 (fold) (luciferase activity, log2 of the fold difference relative to DMSO controls) below -0.5.
[A] Not satisfied

[Q] Please let me know if CCCCC[C@H](O)/C=C/[C@@H]1[C@H](C/C=C\CCCC(=O)O)[C@@H](O)C[C@H]1O [8-EPI-PROSTAGLANDIN F2a] shows Log2 (fold) (luciferase activity, log2 of the fold difference relative to DMSO controls) below -0.5.
[A] Satisfied

[Q] Please let me know if "C[C@H]1CCC/C=C/[C@@H]2C[C@H](O)C[C@H]2[C@H](O)/C=C/C(=O)O1" shows Log2 (fold) (luciferase activity, log2 of the fold difference relative to DMSO controls) below -0.5.
[A] Not satisfied

[Q] Please let me know if "Cc1c(C(=O)c2cccc3ccccc23)c2cccc3c2n1[C@H](CN1CCOCC1)CO3" shows Log2 (fold) (luciferase activity, log2 of the fold difference relative to DMSO controls) below -0.5.
[A] Not satisfied

[Q] Please let me know if CC(=O)OCOC(c1cc([N+](=O)[O-])ccc1Oc1ccc(Br)cc1)P(=O)(OCOC(C)=O)OCOC(C)=O (stereo not drawn) shows Log2 (fold) (luciferase activity, log2 of the fold difference relative to DMSO controls) below -0.5.
[A] Not satisfied

[Q] Please let me know if CC(C)(C)c1cc(O)c(C(C)(C)C)cc1O [2,5-ditertbutylhydroquinone] shows Log2 (fold) (luciferase activity, log2 of the fold difference relative to DMSO controls) below -0.5.
[A] Not satisfied

[Q] Please let me know if CCCCC/C=C\C/C=C\C/C=C\CCCCCCC(=O)NCCO [ANANDAMIDE (20:3, n-6)] shows Log2 (fold) (luciferase activity, log2 of the fold difference relative to DMSO controls) below -0.5.
[A] Satisfied

[Q] Please let me know if "O=C(O)CCC/C=C\C[C@H]1C(=O)C[C@@H](O)[C@@H]1/C=C/[C@@H](O)CCc1ccccc1" shows Log2 (fold) (luciferase activity, log2 of the fold difference relative to DMSO controls) below -0.5.
[A] Not satisfied

[Q] Please let me know if COc1ccc(C2CNC(=O)C2)cc1OC1CCCC1 (stereo not drawn) shows Log2 (fold) (luciferase activity, log2 of the fold difference relative to DMSO controls) below -0.5.
[A] Not satisfied
